Listing of entries alongside the reported pIC50.
Tested on: A549
EXPERIMENT: Cytotoxicity against human A549 cells incubated for 48 hrs by MTT assay
Format: functional, cell-based
RECORDED_CONDITIONS: A549, 48 h
The scale used: pIC50 is minus the common logarithm of the concentration in molar units.

Previously resolved entries follow.
COc1ccc2oc(=O)cc(NCc3cn([C@@H]4c5cc6c(cc5[C@@H](c5cc(OC)c(O)c(OC)c5)[C@H]5C(=O)OC[C@@H]54)OCO6)nn3)c2c1
4.76
COc1cc([C@@H]2c3cc4c(cc3[C@@H](n3cc(CNc5cc(=O)oc6ccccc56)nn3)[C@H]3COC(=O)[C@H]23)OCO4)cc(OC)c1O
4.67
COc1ccc2c(OCc3cn([C@@H]4c5cc6c(cc5[C@@H](c5cc(OC)c(O)c(OC)c5)[C@H]5C(=O)OC[C@@H]54)OCO6)nn3)cc(=O)oc2c1
4.39

Consider the record given below.
Param readout= pIC50; system= A549; entry= COc1cc([C@@H]2c3cc4c(cc3[C@@H](n3cc(CNc5cc(=O)oc6cc(Br)ccc56)nn3)[C@H]3COC(=O)[C@H]23)OCO4)cc(OC)c1O ; returns value.
4.88
